Catalogue of log10 vapour pressure (mmHg) readings, one per entry.

- Compound structure string: "C/C=C/C=C/CCCCCCCO"
  log10 vapour pressure (mmHg): -3.29
- Compound structure string: "C=CCOC(=O)C(=C)C"
  log10 vapour pressure (mmHg): 0.761
- Compound structure string: "CCOC(=O)c1ccccc1C(=O)OCC"
  log10 vapour pressure (mmHg): -2.68
- Compound structure string: "CCCCO[N+](=O)[O-]"
  log10 vapour pressure (mmHg): 0.919
- Compound structure string: "C=CCC(C)C"
  log10 vapour pressure (mmHg): 2.43
- Compound structure string: "CNC(=O)CSP(=O)(OC)OC"
  log10 vapour pressure (mmHg): -4.61
- Compound structure string: "c1ccc(-c2ccc(-c3ccccc3)cc2)cc1"
  log10 vapour pressure (mmHg): -7
